Recorded measurements of DC50, one per entry
target: UniProt Q06124; assay: Degradation activity on SHP2 protein in MV-411 cells (Western blot, DC50); format: cell-based; set-up: endogenous in cells; details: MV411 cells, 24 hours, read-out: Degradation activity for differenct cell lines MV411 (DC50)

Observe how each entry below is paired with its result.
COMPOUND	DC50
CC1(N)CCN(c2cnc(Sc3cccc(NC(=O)CCCCCOc4ccc(C5CC5C(=O)NCc5ccc6c(c5)C(=O)N(C5CCC(=O)NC5=O)C6)cc4)c3)cn2)CC1 (stereo not shown) [Compound 189]	< 0.1 µM
Cc1ncsc1-c1ccc([C@H](C)NC(=O)[C@@H]2C[C@@H](O)CN2C(=O)[C@@H](NC(=O)CCCCCCCCN2CCN(C(=O)/C=C/C(=O)Nc3cccc(Sc4cnc(N5CCC(C)(N)CC5)cn4)c3)CC2)C(C)(C)C)cc1 [Compound 54]	< 0.1 µM
Cc1ncsc1-c1ccc([C@H](C)NC(=O)[C@@H]2C[C@@H](O)CN2C(=O)[C@@H](NC(=O)c2cnc(N3CC(OCCCCCCC(=O)Nc4cccc(Sc5cnc(N6CCC(C)(N)CC6)cn5)c4)C3)nc2)C(C)(C)C)cc1 [Compound 86]	< 0.1 µM

Switching to the query record.
Data point: CN(Cc1ccc2c(c1)CN(C1CCC(=O)NC1=O)C2=O)C(=O)c1cnc(N2CCC3(CN(CCCCCCC(=O)Nc4cccc(Sc5cnc(N6CCC(C)(N)CC6)cn5)c4)C3)C2)c(C(F)(F)F)c1 (stereo not shown) [Compound 171] ; DC50 = < 0.1 µM

* * *

target: SHP2 protein (Homo sapiens, UniProt Q06124); test: Degradation activity on SHP2 protein in MIA Paca-2 cells (Western blot, DC50); format: cell-based; parameters: endogenous in cells; host or cells: MIA Paca-2 cells; conditions: read-out: Degradation activity for differenct cell lines MIA Paca-2 (DC50)
Sequence (Q06124 whole entry): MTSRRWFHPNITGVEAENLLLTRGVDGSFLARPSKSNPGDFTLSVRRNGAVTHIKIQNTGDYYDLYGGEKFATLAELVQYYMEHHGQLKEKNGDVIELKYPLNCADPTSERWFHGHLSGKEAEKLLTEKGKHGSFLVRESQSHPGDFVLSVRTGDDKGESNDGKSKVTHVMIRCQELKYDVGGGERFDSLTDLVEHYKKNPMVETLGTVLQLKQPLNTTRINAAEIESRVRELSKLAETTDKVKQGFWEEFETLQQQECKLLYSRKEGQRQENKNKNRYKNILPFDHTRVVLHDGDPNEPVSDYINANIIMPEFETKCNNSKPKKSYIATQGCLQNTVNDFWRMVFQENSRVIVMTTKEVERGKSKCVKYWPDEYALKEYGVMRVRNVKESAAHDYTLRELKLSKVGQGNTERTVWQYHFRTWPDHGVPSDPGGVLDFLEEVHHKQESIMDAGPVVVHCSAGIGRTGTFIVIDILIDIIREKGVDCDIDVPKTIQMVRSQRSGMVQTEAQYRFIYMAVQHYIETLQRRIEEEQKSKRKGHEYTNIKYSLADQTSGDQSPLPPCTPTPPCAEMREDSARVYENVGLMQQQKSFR
EXPERIMENTAL ENDPOINT: DC50

Here's what some known entries look like.
MOLECULE	DC50
CC1(N)CCN(c2cnc(Sc3cccc(NC(=O)c4ccc(N5CCC(C(=O)NCc6ccc7c(c6)CN(C6CCC(=O)NC6=O)C7=O)CC5)c(F)c4)c3)cn2)CC1 (centres unmarked)	> 1000 nM
CC1(N)CCN(c2cnc(Sc3cccc(NC(=O)CCCCCOc4ccc(C5CCC(C(=O)NCc6ccc7c(c6)CN(C6CCC(=O)NC6=O)C7=O)CC5)cc4)c3)cn2)CC1 (centres unmarked) [Compound 192]	> 1000 nM
C[C@@H]1OCC2(CCN(c3cnc(Sc4cccc(NC(=O)CCCN5CCN(c6ccc(C(=O)NCc7ccc8c(c7)C(=O)N(C7CCC(=O)NC7=O)C8)nn6)CC5)c4)cn3)CC2)[C@@H]1N (some centres unmarked)	> 1000 nM
CC1(N)CCN(c2cnc(Sc3cccc(NC(=O)c4ccc(N5CCC(N6CC=C(c7cnc(C(=O)NCc8ccc9c(c8)CN(C8CCC(=O)NC8=O)C9=O)c(Cl)c7)CC6)CC5)c(F)c4)c3)cn2)CC1 (centres unmarked)	< 100 nM

In plain terms, Cc1cc(C(=O)NCc2ccc3c(c2)CN(C2CCC(=O)NC2=O)C3=O)ncc1C1=CCN(C2CCN(c3ccc(C(=O)Nc4cccc(Sc5cnc(N6CCC(C)(N)CC6)cn5)c4)cc3)CC2)CC1 (centres unmarked) has a documented DC50 of < 100 nM

* * *

biological target: SHP2 protein (Homo sapiens, UniProt Q06124); test: Degradation activity on SHP2 protein in MIA Paca-2 cells (Western blot, DC50); type: cell-based; set-up: endogenous in cells; host or cells: MIA Paca-2 cells; conditions: read-out: Degradation activity for differenct cell lines MIA Paca-2 (DC50)
Here, each record is paired with measured DC50 data.

These recorded examples may help you get a feel for the data.
COMPOUND	SYSTEM UNDER TEST	RESULT
CC1(N)CCN(c2cnc(Sc3cccc(NC(=O)C4CC45CCN(c4ccc(C(=O)NCc6ccc7c(c6)CN(C6CCC(=O)NC6=O)C7=O)nn4)CC5)c3)cn2)CC1 (stereo not shown)	SHP2 protein (Homo sapiens, UniProt Q06124)	> 1000 nM
CC1(N)CCN(c2cnc(Sc3cccc(NC(=O)c4ccc(N5CCC(N6CC=C(C7CCC(C(=O)NCc8ccc9c(c8)CN(C8CCC(=O)NC8=O)C9=O)CC7)CC6)CC5)c(F)c4)c3)cn2)CC1 (stereo not shown)	SHP2 protein (Homo sapiens, UniProt Q06124)	< 100 nM
CC1(N)CCN(c2cnc(Sc3cccc(NC(=O)c4ccc(CN5CCN(c6ccc7c(c6)CN(C6CCC(=O)NC6=O)C7=O)CC5)cc4)c3)cn2)CC1 (stereo not shown)	SHP2 protein (Homo sapiens, UniProt Q06124)	> 1000 nM
CC1(N)CCN(c2cnc(Sc3cccc(NC(=O)c4ccc(N5CCC(N6CCN(c7nnc(C(=O)NCc8ccc9c(c8)CN(C8CCC(=O)NC8=O)C9=O)cc7Cl)CC6)CC5)cc4)c3)cn2)CC1 (stereo not shown)	SHP2 protein (Homo sapiens, UniProt Q06124)	> 1000 nM

Result for CC1(N)CCN(c2cnc(Sc3cccc(NC(=O)CCCCCCN4CC5(CCN(c6ncc(C(=O)NCc7ccc8c(c7)CN(C7CCC(=O)NC7=O)C8=O)cc6C(F)(F)F)C5)C4)c3)cn2)CC1 (stereo not shown) , tested on SHP2 protein (Homo sapiens, UniProt Q06124), DC50: 100 to 1000 nM

Fill in: SHP2 protein (Homo sapiens, UniProt Q06124) DC50 for Cc1cc(C(=O)Nc2cccc(Sc3cnc(N4CCC(C)(N)CC4)cn3)c2)ccc1N1CCC(N2CC=C(c3ccc(C(=O)NCc4ccc5c(c4)CN(C4CCC(=O)NC4=O)C5=O)nc3)CC2)CC1 (stereo not shown) = < 100 nM

Value sought: DC50, system SHP2 protein (Homo sapiens, UniProt Q06124), item CC1(N)CCN(c2cnc(Sc3cccc(NC(=O)c4cccc(CN5CCN(c6ccc7c(c6)CN(C6CCC(=O)NC6=O)C7=O)CC5)c4)c3)cn2)CC1 (stereo not shown) . Result: > 1000 nM

GET /values?item= CC1(N)CCN(c2cnc(Sc3cccc(NC(=O)C4CC45CCC(N4CC=C(c6ccc(C(=O)NCc7ccc8c(c7)CN(C7CCC(=O)NC7=O)C8=O)nc6)CC4)CC5)c3)cn2)CC1 (single isomer, unassigned) [Compound 315] &system= SHP2 protein (Homo sapiens, UniProt Q06124) returns DC50: > 1000 nM

* * *

biological target: SHP2 protein (Homo sapiens); assay: Degradation activity on SHP2 protein in MV-411 cells (Western blot, DC50); format: cell-based; set-up: endogenous in cells; settings: MV411 cells, 24 hours, read-out: Degradation activity for differenct cell lines MV411 (DC50)
Reported DC50 values follow for various compounds

Examples with their reported DC50 follow.
COMPOUND	DC50
CC(C)(C)OC(=O)NCC1(O)C2CCC1CN(c1cnc(Sc3cccc(NC(=O)CCCCCCN4CC5(CCN(c6ccc(C(=O)NCc7ccc8c(c7)CN(C7CCC(=O)NC7=O)C8=O)nn6)C5)C4)c3)cn1)C2 (stereo not drawn)	> 1000 nM
CC1(N)CCN(c2cnc(Sc3cccc(NC(=O)/C=C/C(=O)N4CCC5(CN(CCCCCCC(=O)NCc6ccc7c(c6)CN(C6CCC(=O)NC6=O)C7=O)C5)C4)c3)cn2)CC1 (stereo not drawn)	> 1000 nM

According to the records, this compound CC1(CN)CCN(c2cnc(Sc3ccc(NC(=O)COCCOCCOCCOCC(=O)Nc4ccc5c(c4)C(=O)N(C4CCC(=O)NC4=O)C5)cc3Cl)cn2)CC1 (stereo not drawn) displays DC50 of > 1000 nM

* * *

target: SHP2 protein (Homo sapiens, UniProt Q06124); assay: Degradation activity on SHP2 protein in MIA Paca-2 cells (Western blot, DC50); format: cell-based; parameters: endogenous in cells; host or cells: MIA Paca-2 cells; conditions: read-out: Degradation activity for differenct cell lines MIA Paca-2 (DC50)
EXPERIMENTAL ENDPOINT: DC50

// solved cases for DC50 follow
MOLECULE	DC50
CC1(N)CCN(c2cnc(Sc3cccc(NC(=O)c4ccc(N5CCC(N6CCN(c7ccc(C(=O)NCc8ccc9c(c8)CN(C8CCC(=O)NC8=O)C9=O)c(F)c7)CC6)CC5)c(F)c4)c3)cn2)CC1 (stereo not drawn)	< 100 nM
C[C@@H]1OCC2(CCN(c3cnc(Sc4cccc(NC(=O)c5ccc(N6CCC(N7CC=C(c8ccc(C(=O)NCc9ccc%10c(c9)CN(C9CCC(=O)NC9=O)C%10=O)nn8)CC7)CC6)cc5)c4)cn3)CC2)[C@@H]1N (stereo partly drawn)	< 100 nM
CC1(N)CCN(c2cnc(Sc3cccc(NC(=O)C4CC(N5CCN(c6ccc7c(c6)C(=O)N(C6CCC(=O)NC6=O)C7=O)CC5)C4)c3)cn2)CC1 (stereo not drawn)	> 1000 nM
Cc1cc(N2CCC(N3CC=C(c4ccc(C(=O)NCc5ccc6c(c5)CN(C5CCC(=O)NC5=O)C6=O)nc4F)CC3)CC2)ccc1C(=O)Nc1cccc(Sc2cnc(N3CCC(C)(N)CC3)cn2)c1 (stereo not drawn)	< 100 nM
CC1(N)CCN(c2cnc(Sc3cccc(NC(=O)CCCCCOc4ccc(C5CCC(C(=O)NCc6ccc7c(c6)CN(C6CCC(=O)NC6=O)C7=O)CC5)cc4)c3)cn2)CC1 (stereo not drawn) [Compound 191]	> 1000 nM

Now consider a different molecule.
Record C[C@@H]1OCC2(CCN(c3cnc(Sc4cccc(NC(=O)[C@H]5C[C@@H]5c5ccc(N6CCN(c7ccc(C(=O)NCc8ccc9c(c8)CN(C8CCC(=O)NC8=O)C9=O)nn7)CC6)c(F)c5)c4)cn3)CC2)[C@@H]1N (stereo partly drawn) , field DC50: > 1000 nM
